The following sequences are listed with their measured furin cleavage Z-score values.
target entity: furin, P09958;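 further: purified furin at 1:10 enzyme:substrate in 50 mM HEPES pH 7.5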
Sequence (P09958 whole entry): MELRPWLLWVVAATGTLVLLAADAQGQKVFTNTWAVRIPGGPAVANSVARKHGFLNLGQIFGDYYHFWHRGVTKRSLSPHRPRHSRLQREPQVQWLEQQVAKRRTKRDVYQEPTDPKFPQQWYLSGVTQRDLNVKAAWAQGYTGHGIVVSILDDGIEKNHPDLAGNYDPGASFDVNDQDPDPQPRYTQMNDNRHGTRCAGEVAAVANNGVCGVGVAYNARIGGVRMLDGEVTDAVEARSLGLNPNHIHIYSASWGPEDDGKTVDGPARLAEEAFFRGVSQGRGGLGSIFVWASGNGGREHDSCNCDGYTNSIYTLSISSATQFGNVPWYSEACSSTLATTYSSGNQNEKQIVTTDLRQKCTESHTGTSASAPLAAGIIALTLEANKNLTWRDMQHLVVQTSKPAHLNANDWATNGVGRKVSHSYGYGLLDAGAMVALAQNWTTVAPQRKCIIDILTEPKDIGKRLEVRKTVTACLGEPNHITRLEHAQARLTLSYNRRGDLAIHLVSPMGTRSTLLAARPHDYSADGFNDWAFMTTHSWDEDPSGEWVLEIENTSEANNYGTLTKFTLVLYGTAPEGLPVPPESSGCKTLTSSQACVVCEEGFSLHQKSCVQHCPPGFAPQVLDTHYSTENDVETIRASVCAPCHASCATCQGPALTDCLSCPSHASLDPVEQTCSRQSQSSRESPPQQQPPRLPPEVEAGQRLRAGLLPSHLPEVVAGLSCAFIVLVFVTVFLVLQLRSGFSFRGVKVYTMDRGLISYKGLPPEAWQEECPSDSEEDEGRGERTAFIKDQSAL
method description: furin cleavage Z-score vs untreated control; higher = more cleavage, active = 3.5 or more, inactive = 1 or less, 8 variable residues between constant flanks
experimental context: 30 min
Some of the results follow. No count for the full screen is at hand.
Give the value as a plain number.

Consider the reported furin cleavage Z-score for these sequences:
residue_string="CASTALAELAAGNASASA [HC1331]" reported_value=0.259
residue_string="CAEVVTSTWFAGNASASA [HC2247]" reported_value=0.942
residue_string="CAMEEFSQHLAGNASASA [HC6]" reported_value=-0.188

Now for a further sequence.
### Prompt Which measured furin cleavage Z-score value corresponds to CANLLSVEEAAGNASASA [HC1411] ?
### Response 1.04
